Target: UniProtKB P01375
Sequence (P01375 77-233 limits assumed): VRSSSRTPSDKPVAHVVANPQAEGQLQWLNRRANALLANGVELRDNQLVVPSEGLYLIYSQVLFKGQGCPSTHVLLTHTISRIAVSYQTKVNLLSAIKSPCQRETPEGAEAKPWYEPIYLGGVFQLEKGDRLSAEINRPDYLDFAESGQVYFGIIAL
pIC50: −log10 of the molar value.
EXPERIMENTAL_ENDPOINT: pIC50

Would you please look over these solved cases?
> print(dat)
                                   molecule  test.result
1  CC(C)n1nccc1C1CCn2c(=O)c3ccc(-c4cnc(N5CCOCC5)nc4)cc3n21 (stereo not shown)       < 5.00
2  Cc1ccc(OC(F)F)c([C@H]2CCn3c(=O)c4ccc(-c5cnc(C(C)(C)O)nc5)cc4n32)c1 (single isomer, unassigned)       > 6.00
3  O=c1c2ccc(-c3cnc(N4CCC5(CC4)CC(O)C5)nc3)cc2n2n1CC[C@H]2c1ccccc1OC(F)F (single isomer, unassigned)       > 6.00

Moving on to another molecule below.
Challenge: Please give the measured pIC50 for this molecule: COC[C@H]1CCCN1c1ncc(-c2ccc3c(=O)n4n(c3c2)[C@@H](c2ccccc2OC(F)F)CC4)cn1 (single isomer, unassigned)
Response given: 5.00 to 6.00
